tested on: cyclin D1 and cyclin D3 in HeLa cells; experiment: Western blotting of cyclin D expression; assay type: cell-based, human; conditions: 20 h, DIF-3 20 µM, Bu-DIF-3 5–7.5 µM, BODIPY-DIF-3 20 µM, CCCP 10 µM, azide 0.01%
value.kind: Expression of cyclin D1

- CCCCCC(=O)c1c(O)cc(OCCCC)c(Cl)c1O: significantly decreased
- CCCCCC(=O)c1c(O)cc(OCCCCNC(=O)CCC2=[N+]3C(=Cc4c(C)cc(C)n4[B-]3(F)F)C=C2)c(Cl)c1O: significantly decreased
- CCCCCC(=O)c1c(O)cc(OC)c(Cl)c1O: significantly decreased

* * *

tested on: mouse liver mitochondria; experiment: Mitochondrial oxygen consumption (Clark-type oxygen electrode); format: biochemical; details: 100% promoting concentration: doubles the basal rate of oxygen consumption, 30°C
// reported PC100 (µM) for Mito. O2 consumption for each item listed
Give your result in µM as a bare value.

Worked set:
* N#CC(C#N)=NNc1cccc(Cl)c1 [CCCP, carbonyl cyanide m-chlorophenylhydrazone, reference compound] | 0.43
* CCCCCC(=O)c1c(O)cc(OCCCCNC(=O)CCC2=[N+]3C(=Cc4c(C)cc(C)n4[B-]3(F)F)C=C2)c(Cl)c1O [BODIPY-DIF-3] | 25

Recorded PC100 (µM) for Mito. O2 consumption for CCCCCC(=O)c1c(O)cc(OCCCC)c(Cl)c1O [Bu-DIF-3] , please?
1.7

Recorded PC100 (µM) for Mito. O2 consumption for CCCCCC(=O)c1c(O)cc(OC)c(Cl)c1O [DIF-3] , please?
12

* * *

// reported IC50 for each item listed
Test system: 3T3-L1 cells
Experiment: Cell growth assay (Alamar blue), 3T3-L1
Format: cell-based, mouse
Settings: Mus musculus, 72 h; 3T3-L1 cells, 3 days, Alamar blue
Experimental: HeLa, LM8, and 3T3-L1 cells were cultured for 3 days at 2.5–5×10^3 cells/well in 12-well plates with each well filled with 1 ml of DMEM-FBS (for HeLa and 3T3-L1) or MEM-α-FBS (for LM8) together with drugs at various concentrations. […] Relative cell numbers were determined for each concentration for each drug and the IC50 was determined from the dose-response curves. […]

* CCCCNC(=O)CCC1=[N+]2C(=Cc3c(C)cc(C)n3[B-]2(F)F)C=C1 | > 20 µM

What reported IC50 corresponds to CCCCCC(=O)c1c(O)cc(OCCCCNC(=O)CCC2=[N+]3C(=Cc4c(C)cc(C)n4[B-]3(F)F)C=C2)c(Cl)c1O on 3T3-L1 cells?
20 µM

What reported IC50 corresponds to CCCCCC(=O)c1c(O)cc(OC)c(Cl)c1O on 3T3-L1 cells?
> 20 µM

What reported IC50 corresponds to N#CC(C#N)=NNc1cccc(Cl)c1 [CCCP, carbonyl cyanide m-chlorophenylhydrazone, reference compound] on 3T3-L1 cells?
7.5 µM

What reported IC50 corresponds to CCCCCC(=O)c1c(O)cc(OCCCC)c(Cl)c1O on 3T3-L1 cells?
4.3 µM
